Test: Physostigmine pharmacokinetics and tissue concentrations in rats after intramuscular administration
Assay type: in vivo, Male Sprague-Dawley rats
Conditions: rat, muscle, im; 0.3 mg/kg intramuscular, 60 min; read-out: Tissue concentration of physostigmine, Muscle
Protocol: To study the pharmakinetics of physostigmine and validate the RIA and the antibody specificity of the present invention, rat studies were conducted. […] The blood and tissue samples were used to determine the concentration of physostigmine as a function of time. FIG. 3 gives the physostigmine level in the plasma of three male rats for each time interval as determined by the RIA of the present invention, while Table 4 presents the concentration of physostigmine in various organs as a function of time.
Property: concentration at 1 h
Kindly report the value followed by its unit.

Lookup: State the recorded concentration at 1 h for this entry: `CNC(=O)Oc1ccc2c(c1)[C@]1(C)CCN(C)[C@@H]1N2C`
Found: 86 ng/g

* * *

Assay: Physostigmine pharmacokinetics and tissue concentrations in rats after intramuscular administration
Assay type: in vivo, Male Sprague-Dawley rats
Conditions: rat, heart, im; 0.3 mg/kg intramuscular, 5 min; read-out: Tissue concentration of physostigmine, Heart
Property: concentration at 5 min (ng/g)
Number only, in ng/g; omit the unit.

Lookup: Which concentration at 5 min value belongs to CNC(=O)Oc1ccc2c(c1)[C@]1(C)CCN(C)[C@@H]1N2C [Physostigmine, physostigmine] ?
Found: 785

* * *

Test: Physostigmine pharmacokinetics and tissue concentrations in rats after intramuscular administration
Type: in vivo, Male Sprague-Dawley rats
Details: rat, fat, im; 0.3 mg/kg intramuscular, 2.5 min; read-out: Tissue concentration of physostigmine, Fat
Method: To study the pharmakinetics of physostigmine and validate the RIA and the antibody specificity of the present invention, rat studies were conducted. […] The blood and tissue samples were used to determine the concentration of physostigmine as a function of time. FIG. 3 gives the physostigmine level in the plasma of three male rats for each time interval as determined by the RIA of the present invention, while Table 4 presents the concentration of physostigmine in various organs as a function of time.
Property: concentration at 2.5 min (ng/g)
Give the value, in units of ng/g, as a plain number.

Lookup: Record request: concentration at 2.5 min value, item `CNC(=O)Oc1ccc2c(c1)[C@]1(C)CCN(C)[C@@H]1N2C`
Found: 230

* * *

Assay: Physostigmine pharmacokinetics and tissue concentrations in rats after intramuscular administration
Format: in vivo, Male Sprague-Dawley rats
Conditions: rat, brain, im; 0.3 mg/kg intramuscular, 30 min; read-out: Tissue concentration of physostigmine, Brain
Property: concentration at 0.5 h (ng/g)
Record the value in ng/g, omitting the unit from your answer.

Lookup: I would be grateful if you could share the reported concentration at 0.5 h for `CNC(=O)Oc1ccc2c(c1)[C@]1(C)CCN(C)[C@@H]1N2C` .
Found: 173

* * *

Assay: Physostigmine pharmacokinetics and tissue concentrations in rats after intramuscular administration
Type: in vivo, Male Sprague-Dawley rats
Settings: rat, brain, im; 0.3 mg/kg intramuscular, 120 min; read-out: Tissue concentration of physostigmine, Brain
Procedure: To study the pharmakinetics of physostigmine and validate the RIA and the antibody specificity of the present invention, rat studies were conducted. […] The blood and tissue samples were used to determine the concentration of physostigmine as a function of time. FIG. 3 gives the physostigmine level in the plasma of three male rats for each time interval as determined by the RIA of the present invention, while Table 4 presents the concentration of physostigmine in various organs as a function of time.
Property: concentration at 2 h
Dear colleague, please send the value followed by its unit.

Lookup: Request the reported concentration at 2 h associated with CNC(=O)Oc1ccc2c(c1)[C@]1(C)CCN(C)[C@@H]1N2C [Physostigmine, physostigmine]
Found: 0.53 ng/g
